Data provenance: PubChem BioAssay AID248

- Tested on: L1210 leukemia ip in BDF1 mice, survival T/C
- test.protocol: NCI In Vivo Anticancer Drug Screen. Data for tumor model L1210 Leukemia (intraperitoneal) in B6D2F1 (BDF1) mice
- conditions.used: endpoint: mean survival time; dose: 400.0 mg/kg/injection; schedule: Q01DX009 (ip); vehicle: Klucel (hydroxypropylcellulose) (HPC); higher = longer survival
- Method: The antitumor activity of compounds was measured in mice bearing transplantable tumors. Survival or tumor size were measured and the results are expressed as the measurement made in the treated group (T) divided by the measurement made in the vehicle treated control group (C). The tumor model used in this assay is L1210 Leukemia (intraperitoneal) in B6D2F1 (BDF1) mice
Toxic doses and inconclusive results are not listed.
Here the recorded T/C is given for each entry.

CS(=O)(=O)c1ccc(/C=C2/C=Cc3ccccc32)cc1	95 % of control
CCCCCCCCCCCCCCCCOc1ccc(C(=O)CC(=O)OC)cc1	92 % of control

Q: Give a short answer stating reported T/C for O=C1OCCN1/N=C/c1ccc([N+](=O)[O-])o1 .
Ans: 97 % of control

Q: Give a short answer stating reported T/C for Cc1cc2c(c(NC(=O)NCCCl)c1C)CCCC2 .
Ans: 91 % of control

Q: Give a short answer stating reported T/C for Cc1cccc(Cl)c1NC(=O)c1ccc(C(=O)Nc2c(C)cccc2Cl)cc1 .
Ans: 94 % of control

Q: Give a short answer stating reported T/C for CN(CCC#N)c1ccc(/C=C(\C#N)c2ccc(Br)cc2)cc1 .
Ans: 96 % of control

Q: Give a short answer stating reported T/C for COc1ccc(NC(=O)Oc2cc(C)cc(C)c2)cc1 .
Ans: 100 % of control

Q: Give a short answer stating reported T/C for c1ccc(N2CCOCC2)cc1 .
Ans: 101 % of control

----------
Here the recorded T/C is given for each entry.
- System: L1210 leukemia ip in BDF1 mice, survival T/C
- test.protocol: NCI In Vivo Anticancer Drug Screen. Data for tumor model L1210 Leukemia (intraperitoneal) in B6D2F1 (BDF1) mice
- conditions.used: endpoint: mean survival time; dose: 50.0 mg/kg/injection; schedule: Q01DX001 (ip); vehicle: saline; higher = longer survival
Inconclusive results and toxic doses are left out.

CN(C)Cc1cccc(C(F)(F)F)c1C(O)c1ccccc1 (configuration not stated)	100 % of control
O=C(CCCC(=O)N/N=C/c1c2ccccc2cc2ccccc12)N/N=C/c1c2ccccc2cc2ccccc12	100 % of control
C1=C\CCCC/C=C/CC/1	103 % of control
CN(C)CCN=C(Nc1ccccn1)Nc1ccccn1	113 % of control
O=C(O)C(=O)O.[Co+3].[NH-]C(Cc1ccccc1)C(=O)[O-].[NH-]CCN(CC[NH-])CC[NH-] (configuration not stated)	110 % of control

Q: Give a short answer stating reported T/C for Cc1cc(C)c(CCN(C)C)c(C)c1 .
Ans: 101 % of control

Q: Give a short answer stating reported T/C for O=C1CCCCCCCC1O (configuration not stated) .
Ans: 96 % of control

Q: Give a short answer stating reported T/C for C[n+]1ccc(Nc2ccc(NC(=O)c3ccc(Nc4cc[n+](C)c5ccc([N+](=O)[O-])cc45)cc3[N+](=O)[O-])cc2)cc1 .
Ans: 98 % of control

Q: Give a short answer stating reported T/C for CCCCCCCCCCCC[n+]1ccc(C(N)=O)cc1 .
Ans: 86 % of control

Q: Give a short answer stating reported T/C for O=C1COc2ccccc21 .
Ans: 97 % of control

Q: Give a short answer stating reported T/C for O=c1[nH]c2c(cnn2-c2ccccc2)c(=O)n1OS(=O)(=O)c1ccccc1 .
Ans: 103 % of control

Q: Give a short answer stating reported T/C for COc1cc2cc(C)[nH]c2cc1OC .
Ans: 101 % of control

----------
- System: L1210 leukemia ip in BDF1 mice, survival T/C
- test.protocol: NCI In Vivo Anticancer Drug Screen. Data for tumor model L1210 Leukemia (intraperitoneal) in B6D2F1 (BDF1) mice
- conditions.used: endpoint: mean survival time; dose: 100.0 mg/kg/injection; schedule: Q04DX002 (ip); vehicle: Klucel (hydroxypropylcellulose) (HPC); higher = longer survival
Inconclusive results and toxic doses are left out.
measurement.name: T/C

# count of solved cases: 10
CC(=O)OC1C(C=O)OC(C)(C)OC1C1COC(=O)O1 (stereo not given)	100 % of control
CC1=C2CCCC(=O)C2(C)CCC1=O (stereo not given)	107 % of control
O=C(O)c1cc(Br)cc(Br)c1Cl	108 % of control
Cc1no[n+]([O-])c1C(=O)NN	106 % of control
CCCCN(C)/N=N/c1nn[nH]n1	92 % of control
CCCCOP(=O)(OCCCC)OC(C#N)CCC (stereo not given)	107 % of control
CCOC(=O)c1cc2c(=O)c(C(=O)OCC)c[nH]c2o1	104 % of control
CSc1ccc(OC(=O)Nc2cccc(Cl)c2)cc1C	101 % of control
COc1cc(Cl)ccc1NC(=S)Nc1ccccc1	97 % of control
COc1ccc(OC)c(-n2cccc2C(=O)O)c1	90 % of control

Q: Send back L1210 leukemia ip in BDF1 mice, survival T/C T/C of O=C(O)C1CC=CCC1C(=O)Nc1cccc(O)c1 (stereo not given) only.
Ans: 99 % of control

Q: Send back L1210 leukemia ip in BDF1 mice, survival T/C T/C of O=C(c1ccccc1)c1cc2ccccc2n1S(=O)(=O)c1ccccc1 only.
Ans: 95 % of control

Q: Send back L1210 leukemia ip in BDF1 mice, survival T/C T/C of CN(Cc1cccc(Cl)c1)C(=O)Nc1ccccc1Cl only.
Ans: 104 % of control

Q: Send back L1210 leukemia ip in BDF1 mice, survival T/C T/C of C/C=C\C=N\NC(=O)C(=O)N/N=C/C=C\C only.
Ans: 97 % of control

Q: Send back L1210 leukemia ip in BDF1 mice, survival T/C T/C of O=C(Nc1ccc(Cl)cc1)Nc1ncccn1 only.
Ans: 96 % of control

----------
- Tested on: L1210 leukemia ip in BDF1 mice, survival T/C
- test.protocol: NCI In Vivo Anticancer Drug Screen. Data for tumor model L1210 Leukemia (intraperitoneal) in B6D2F1 (BDF1) mice
- conditions.used: endpoint: mean survival time; dose: 25.0 mg/kg/injection; schedule: Q04DX002 (ip); vehicle: saline with Tween-80; higher = longer survival
Toxic doses and inconclusive results are not listed.
Here the recorded T/C is given for each entry.

CC(CO)CCC(=O)C(C)C1C2(CC3C4CCC5CC(O)CCC5(C)C4CCC31C)SCCS2 (stereo not drawn)	100 % of control

We now examine a further compound.
Q: Give a short answer stating reported T/C for CCN(/N=C/c1ccc([N+](=O)[O-])o1)C(N)=O .
Ans: 100 % of control

----------
- System: L1210 leukemia ip in BDF1 mice, survival T/C
- test.protocol: NCI In Vivo Anticancer Drug Screen. Data for tumor model L1210 Leukemia (intraperitoneal) in B6D2F1 (BDF1) mice
- conditions.used: endpoint: mean survival time; dose: 40.0 mg/kg/injection; schedule: Q01DX001 (ip); vehicle: saline
Toxic doses and inconclusive results are not listed. Rule as the data show it: active = T/C of 150% or more; inactive = T/C below 125%.
Use one of these outcomes when replying: Y for active, N for inactive

Q: Please share the test call associated with CCCCCCCCCCCCn1c(C)nc2ccccc21 .
Ans: N

Q: Please share the test call associated with C=C[N+](C)(C)C .
Ans: N

Q: Please share the test call associated with CCCCCCOP(=O)(N1CC1)N1CC1 .
Ans: Y

Q: Please share the test call associated with CN(/N=C/c1ccccc1)C(=N)N .
Ans: N

----------
Here the recorded T/C is given for each entry.
- System: L1210 leukemia ip in BDF1 mice, survival T/C
- test.protocol: NCI In Vivo Anticancer Drug Screen. Data for tumor model L1210 Leukemia (intraperitoneal) in B6D2F1 (BDF1) mice
- conditions.used: endpoint: mean survival time; dose: 200.0 mg/kg/injection; schedule: Q01DX009 (ip); vehicle: Klucel (hydroxypropylcellulose) (HPC); higher = longer survival
Toxic doses and inconclusive results are not listed.

Q: Give a short answer stating reported T/C for CC(C)Oc1ccc(Nc2ccccc2)cc1 .
Ans: 100 % of control

Q: Give a short answer stating reported T/C for O=C(O)c1ccc2c([N+](=O)[O-])cccc2n1 .
Ans: 97 % of control

Q: Give a short answer stating reported T/C for C(=Nc1cccnc1)c1c[nH]c2ccccc12 .
Ans: 86 % of control

Q: Give a short answer stating reported T/C for CN(Cc1ccccc1)C(=O)Nc1ccc(F)c([N+](=O)[O-])c1 .
Ans: 98 % of control

Q: Give a short answer stating reported T/C for Cc1c(Cl)cccc1NC(=O)Nc1ccccc1F .
Ans: 106 % of control

Q: Give a short answer stating reported T/C for COC(=O)C1C(=O)C(C(=O)OC)C2C(C(=O)OC)C(=O)C(C(=O)OC)C12 (stereo unspecified) .
Ans: 95 % of control

Q: Give a short answer stating reported T/C for CCOC(=O)c1cc(C(=O)OCC)c(C#N)c(=O)[nH]1 .
Ans: 88 % of control

Q: Give a short answer stating reported T/C for N#Cc1c(Cl)nsc1Cl .
Ans: 102 % of control

Q: Give a short answer stating reported T/C for O=C(O)CCC(=O)c1ccccc1 .
Ans: 96 % of control

Q: Give a short answer stating reported T/C for CC(C)N(C(=O)Nc1cccc(C(F)(F)F)c1)c1ccccc1 .
Ans: 104 % of control

Q: Give a short answer stating reported T/C for Cc1cc(C)c(C#N)c(=O)[nH]1 .
Ans: 97 % of control

Q: Give a short answer stating reported T/C for O=c1cc(-c2ccccc2)ss1 .
Ans: 102 % of control

Q: Give a short answer stating reported T/C for CC1=CC2=NC(=O)C(c3ccccc3)C(=O)N2C=C1 (stereo unspecified) .
Ans: 100 % of control

Q: Give a short answer stating reported T/C for CC(=O)c1ccccc1I .
Ans: 97 % of control

Q: Give a short answer stating reported T/C for N#CC1(c2ccccc2)OC1(c1ccccc1)c1ccccc1 (stereo unspecified) .
Ans: 91 % of control
